Each recorded value in this set is attributed to PubChem BioAssay (NCATS).

protocol: High-throughput drug toxicity screening in the BPDCN cell line Cal-1 (AID 1224825);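 note: cells exposed to compounds for 48 h; 100% = DMSO and 0% = bortezomib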
test.settings: Cal-1 BPDCN cell viability, qHTS; at 45.8 µM (top of the series) unless noted
Please respond with reported viability (% of control) for every item in the list.
Give the value, in units of %, as a plain number.

Ask: Entry under review: C[C@H](NC(=O)[C@@H](O)c1cc(F)cc(F)c1)C(=O)N[C@@H]1C(=O)N(C)c2ccccc2-c2ccccc21 . Reported viability (% of control)?
Reply: 103

Ask: What viability (% of control) value was documented for this compound, Cc1cc(C(=O)NOCCO)c(Nc2ccc(I)cc2F)n(C)c1=O ?
Reply: 30.2

Ask: Request the reported viability (% of control) associated with CN1CCc2c(c3ccccc3n2Cc2ccc(C(=O)NO)cc2)C1
Reply: 4.77

Ask: What value of viability (% of control) has been recorded for this entry: CC[C@H](CC[C@@H](C)[C@H]1CC[C@H]2[C@@H]3CC=C4C[C@@H](O)CC[C@]4(C)[C@@H]3CC[C@]12C)C(C)C
Reply: 107

Ask: Could you share which viability (% of control) value was measured for CCc1cnn2c(NCc3ccc[n+]([O-])c3)cc(N3CCCC[C@@H]3CCO)nc12 ?
Reply: 3.16

Ask: Item under review: Cc1ccc(-n2[nH]c(C)c(N=Nc3cccc(-c4cccc(C(=O)O)c4)c3O)c2=O)cc1C . Reported viability (% of control)?
Reply: 28.2

Ask: viability (% of control) lookup needed for CN(N=O)C(=O)N[C@H]1C(O)OC(CO)[C@@H](O)[C@H]1O (some centres undefined) , thanks.
Reply: 96.8

Ask: I would be grateful if you could share the reported viability (% of control) for NC(=NCCCCCCN=C(N)N=C(N)Nc1ccc(Cl)cc1)N=C(N)Nc1ccc(Cl)cc1 .
Reply: 2.49

Ask: Please report the recorded viability (% of control) for C[C@@H](Oc1ccc2[nH]nc(C=Cc3cnn(CCO)c3)c2c1)c1c(Cl)cncc1Cl .
Reply: 6.51

* * *

protocol: qHTS of pediatric cancer cell lines to identify multiple opportunities for drug repurposing: Confirmatory screen for NB1643 cells (AID 1347109); note: nearly all actives have a fitted effect of over 45% in size
test.settings: NB1643 neuroblastoma cell viability; series mostly up to 45.9 µM
Results filed as inconclusive are left out. Activity calls are given as the source filed them. Calls come from the whole dose curve; as a rule, active = well fitted cell-killing curve with a large enough effect; inconclusive = small, poorly fitted or top-dose-only effect, or effect the other way; inactive = no such curve, though single readings can be large or run the other way.
Respond using exactly one of the listed classes: active, inactive

Ask: Fill in: this test's call for CC(=O)ON=C1C(c2c(O)[nH]c3cc(Br)ccc23)=Nc2ccccc21 is ___
Reply: active

Ask: Just curious, what result did CC(C)(O)Cn1c(NC(=O)c2ccc(-c3cn[nH]c3)s2)nc2cc(CN3CCOCC3)ccc21 get here?
Reply: active

Ask: Which outcome was assigned to C[C@H](NCc1ccc2c(c1)nc(NC(=O)c1ccc(-c3cn[nH]c3)s1)n2CCc1ccccc1)C(C)(C)C in this test?
Reply: active

Ask: Name the outcome recorded for CC(C=CC(=O)NO)=C[C@@H](C)C(=O)c1ccc(N(C)C)cc1 in the assay.
Reply: active

Ask: Tell me the assay call for O=C1NC(=O)C(=Cc2ccc3nccc(-c4ccncc4)c3c2)S1 please.
Reply: active

Ask: Field: outcome | Entry: N#CNC(=NCCCCCCOc1ccc(Cl)cc1)Nc1ccncc1
Reply: active

Ask: Outcome logged for CN[C@@H]1C[C@H]2O[C@@](C)([C@H]1OC)n1c3ccccc3c3c4c(c5c6ccccc6n2c5c31)C(=O)N[C@H]4O in this assay:
Reply: active

Ask: Which outcome did this test record for the compound Cn1cc(-c2cnn3c(N)c(Br)c([C@H]4CCCNC4)nc23)cn1 ?
Reply: active

Ask: What is the recorded call for this compound in the test? CC(C)(N)c1ccc(-c2nc3ccccc3nc2-c2ccccc2)cc1
Reply: active

Ask: Field: outcome | Entry: CCC(C(=O)O)C1CCC(C)C(C(C)C(O)C(C)C(=O)C(CC)C2OC3(C=CC(O)[C@@]4(CC[C@](C)(C5CC[C@@](O)(CC)C(C)O5)O4)O3)C(C)CC2C)O1 (some centres not stated)
Reply: active

Ask: I'd appreciate the recorded outcome for CC[C@@]1([C@@H]2O[C@@H]([C@H]3O[C@@](O)(CO)[C@H](C)C[C@H]3C)C[C@H]2C)CC[C@H]([C@]2(C)CC[C@]3(C[C@H](O)[C@@H](C)[C@@H]([C@@H](C)[C@@H](OC)[C@H](C)C(=O)O)O3)O2)O1 from this test.
Reply: active

Ask: Which outcome did this test record for the compound CNC(=O)c1ccc(Nc2cc(Nc3ccccc3S(=O)(=O)C(C)C)c3cc[nH]c3n2)nc1 ?
Reply: active

Ask: Tell me the recorded outcome of this test for COc1cc(C=CC(=O)CC(=O)C=Cc2ccc(O)c(OC)c2)ccc1O .
Reply: active

Ask: Assay result, entry CC(C)N1[N]C(=C2C=c3cc(O)ccc3=N2)c2c(N)ncnc21 — outcome?
Reply: active

Ask: # fetch the recorded call for C=CC(=O)Nc1ccc2ncnc(Nc3ccc(OCc4cccc(F)c4)c(Cl)c3)c2c1 here
Reply: active

Ask: Look up the recorded call for CC(=O)N1CCN(c2ccc(OCc3nn(C)c(C)c3-c3cccc4c(CCCOc5cccc6ccccc56)c(C(=O)O)n(Cc5cccnc5)c34)cc2)CC1 in this test.
Reply: inactive

Ask: Would you mind telling me which call this test gave COc1ccc(S(=O)(=O)Nc2cccnc2Nc2ccc(O)cc2)cc1 ?
Reply: active
